biological target: 5-hydroxytryptamine receptor 1A (Homo sapiens)
Sequence (P08908 whole entry): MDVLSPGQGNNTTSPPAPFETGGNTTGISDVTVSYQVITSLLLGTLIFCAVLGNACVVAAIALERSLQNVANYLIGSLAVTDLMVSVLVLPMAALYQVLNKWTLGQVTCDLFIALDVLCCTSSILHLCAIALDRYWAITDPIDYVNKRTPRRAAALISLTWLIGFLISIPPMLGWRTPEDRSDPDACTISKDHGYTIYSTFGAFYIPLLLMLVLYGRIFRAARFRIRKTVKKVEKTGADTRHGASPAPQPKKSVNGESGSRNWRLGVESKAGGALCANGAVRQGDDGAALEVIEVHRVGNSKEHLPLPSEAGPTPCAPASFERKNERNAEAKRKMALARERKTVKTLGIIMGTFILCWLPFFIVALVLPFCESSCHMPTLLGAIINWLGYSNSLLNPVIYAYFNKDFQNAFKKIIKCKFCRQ
Measured metric: pKi
Conceptually, pKi converts a concentration in mol/L into minus its log10.

Illustrative cases are given below, each with its answer.
C[C@H](CN(C(=O)c1ccc([N+](=O)[O-])cc1)c1ccccn1)N1CCN(c2cccc3c2OCCO3)CC1 :: 9.00
C[C@H](CN(C(=O)c1ccc(C(F)(F)F)cc1)c1ccccn1)N1CCN(c2cccc3c2OCCO3)CC1 :: 8.72

Note: attention shifts to another entry.
Q. Consider the compound `C[C@@H](CN(C(=O)c1ccc([N+](=O)[O-])cc1)c1ccccn1)N1CCN(c2cccc3c2OCCO3)CC1` and give its measured pKi.
A. 8.47

Data origin, for the record: ChEMBL document CHEMBL1139501
